tested on: P-388; test: Inhibition of cell growth by counting cells, P-388; format: cell-based, mouse; conditions: Mus musculus, P388, 72 h; three days of incubation; read-out: IC50 (molar) P-388
Exercise: state measured pIC50 for each of the compounds provided.
One number for each entry, as −log10 of the molar value.

Check out these entries, answers already filled in.
CCOc1cc2c(cc1OC)[C@@]1(CS[C@@H]3c4c(OC(C)=O)c(C)c5c(c4[C@H](COC1=O)N1C3[C@H]3c4c(cc(C)c(OC)c4O)C[C@@H]([C@@H]1C#N)N3C)OCO5)NCC2 (some centres unmarked) [Compound 37] :: 9.90
CCCCCCCC(=O)Oc1cc2c(cc1OC)[C@@]1(CS[C@@H]3c4c(OC(C)=O)c(C)c5c(c4[C@H](COC1=O)N1C3[C@H]3c4c(cc(C)c(OC)c4OC(=O)CCCCCCC)C[C@@H]([C@@H]1C#N)N3C(=O)OC(C)(C)C)OCO5)NCC2 (some centres unmarked) [Compound 196] :: 5.04
CCCOc1cc2c(cc1OC)[C@@]1(CS[C@@H]3c4c(OC(C)=O)c(C)c5c(c4[C@H](COC1=O)N1C3[C@H]3c4c(cc(C)c(OC)c4O)C[C@@H]([C@@H]1O)N3C)OCO5)NCC2 (some centres unmarked) [Compound 69] :: 9.90
COc1cc2c(cc1OC(=O)OC(C)(C)C)CCN[C@]21CS[C@@H]2c3c(OC(C)=O)c(C)c4c(c3[C@H](COC1=O)N1C2[C@H]2c3c(cc(C)c(OC)c3O)C[C@@H]([C@@H]1C#N)N2C(=O)OC(C)(C)C)OCO4 (some centres unmarked) [Compound 190] :: 8.28

// next entry
Problem: Which pIC50 is listed for COc1cc2c(cc1OC(=O)C(F)(F)F)CCN[C@]21CS[C@@H]2c3c(OC(C)=O)c(C)c4c(c3[C@H](COC1=O)N1C2[C@H]2c3c(cc(C)c(OC)c3O)C[C@@H]([C@@H]1O)N2C)OCO4 (some centres unmarked) [Compound 104] ?
Solution: 9.93

src = patent US7759345B2
